- Test system: NUGC4
- test_name: Cell proliferation of diffuse gastric cancer cell strain NUGC4 (Cell Counting Kit-8)
- Format: cell-based
- reported_conditions: Homo sapiens, NUGC-4, HGF induced, combined with everolimus 1 micro M, read-out: Trametinib IC50 (micro M) HGF
assay_metric: IC50
Could you write the number and then its unit?

Value of IC50 reported for the compound CC(=O)Nc1cccc(-n2c(=O)n(C3CC3)c(=O)c3c(Nc4ccc(I)cc4F)n(C)c(=O)c(C)c32)c1 is 0.01 µM

* * *

- Test system: GCIY
- test_name: Cell proliferation of diffuse gastric cancer cell strain GCIY (Cell Counting Kit-8)
- Format: cell-based
- reported_conditions: Homo sapiens, base line, Example 5, combined use with everolimus 1 micro M, read-out: Trametinib IC50 (micro M) Base line
assay_metric: IC50 (nM)
Numbers only, in nM.

Value of IC50 reported for the compound CC(=O)Nc1cccc(-n2c(=O)n(C3CC3)c(=O)c3c(Nc4ccc(I)cc4F)n(C)c(=O)c(C)c32)c1 is 30

* * *

- Test system: GCR1
- test_name: Cell proliferation of non-diffuse gastric cancer cells GCR1 (Cell Counting Kit-8)
- Assay type: cell-based
- reported_conditions: Homo sapiens, HGF induced, combined with everolimus 1 micro M, read-out: Trametinib IC50 (micro M) HGF
assay_metric: IC50 (µM)
Numbers only, in µM.

GCR1 assay, compound CC(=O)Nc1cccc(-n2c(=O)n(C3CC3)c(=O)c3c(Nc4ccc(I)cc4F)n(C)c(=O)c(C)c32)c1 , recorded IC50 = 0.1

* * *

- Tested on: MKN7
- test_name: Cell proliferation of non-diffuse gastric cancer cells MKN7 (Cell Counting Kit-8)
- Assay type: cell-based, Human
- reported_conditions: Homo sapiens, MKN-7, MKN7; HGF induced proliferation; read-out: Trametinib IC50 (micro M) HGF
assay_metric: IC50 (nM)
Answers are plain numbers, in nM.

MKN7 assay, molecule CC(=O)Nc1cccc(-n2c(=O)n(C3CC3)c(=O)c3c(Nc4ccc(I)cc4F)n(C)c(=O)c(C)c32)c1 [Trametinib, trametinib] , recorded IC50 = 100

* * *

- Tested on: MKN7
- test_name: Cell proliferation of non-diffuse gastric cancer cells MKN7 (Cell Counting Kit-8)
- Assay type: cell-based, Human
- reported_conditions: Homo sapiens, MKN-7, MKN7; amphiregulin induced; combined with everolimus 1 micro M; read-out: Trametinib IC50 (micro M) amphiregulin
assay_metric: pIC50
Answers are plain numbers, as −log10 of the molar value.

MKN7 assay, compound CC(=O)Nc1cccc(-n2c(=O)n(C3CC3)c(=O)c3c(Nc4ccc(I)cc4F)n(C)c(=O)c(C)c32)c1 , recorded pIC50 = 7.00

* * *

- System: NUGC4
- test_name: Cell proliferation of diffuse gastric cancer cell strain NUGC4 (Cell Counting Kit-8)
- Type: cell-based
- reported_conditions: Homo sapiens, NUGC-4, without HGF and AP, 72 hours, read-out: Trametinib IC50 (micro M) Base line
assay_metric: IC50

NUGC4 assay, compound CC(=O)Nc1cccc(-n2c(=O)n(C3CC3)c(=O)c3c(Nc4ccc(I)cc4F)n(C)c(=O)c(C)c32)c1 , recorded IC50 = ≤ 1 nM

* * *

- Test system: GCIY
- test_name: Cell proliferation of diffuse gastric cancer cell strain GCIY (Cell Counting Kit-8)
- Assay type: cell-based
- reported_conditions: Homo sapiens, without HGF and AP, 72 hours, read-out: Trametinib IC50 (micro M) Base line
- Description: Each diffuse gastric cancer cell strain of NUGC4 (obtained from Health Science Research Resources Bank (Osaka, Japan)) and GCIY (obtained from Riken BioResource Research Center (Tsukuba, Japan)) was cultured and passaged in an RPMI1640 culture medium containing 10% fetal calf serum, 100 units/mL penicillin, and […] streptomycin antibiotic, and was used for the following experiments. […]
assay_metric: IC50 (nM)
Numbers only, in nM.

Value of IC50 reported for the compound CC(=O)Nc1cccc(-n2c(=O)n(C3CC3)c(=O)c3c(Nc4ccc(I)cc4F)n(C)c(=O)c(C)c32)c1 is 100
